target_or_test_system: T1, mouse 4-1BB protein (extracellular domain) (mouse, UniProt P20334 24-187)
T1 construct: extracellular domain; also called mouse 4-1BB-his; mouse 4-1BB-hFc protein
T1 sequence (looked up): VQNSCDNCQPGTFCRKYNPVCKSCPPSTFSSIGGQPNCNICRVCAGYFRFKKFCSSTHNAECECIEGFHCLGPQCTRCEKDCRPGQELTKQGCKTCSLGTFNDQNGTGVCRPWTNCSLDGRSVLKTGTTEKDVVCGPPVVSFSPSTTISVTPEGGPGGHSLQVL
procedure_details: ELISA, coated mouse 4-1BB; Ab 10 ug/ml
result_type: OD450 nm (OD450 nm)
Lab book: enter the figure in OD450 nm, no units written.

Q: Given 172E3E3 (antibody, V domains shown) VH: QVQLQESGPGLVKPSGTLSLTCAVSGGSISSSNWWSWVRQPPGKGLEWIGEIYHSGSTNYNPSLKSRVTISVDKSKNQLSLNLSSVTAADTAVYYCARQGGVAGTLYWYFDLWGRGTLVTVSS VL: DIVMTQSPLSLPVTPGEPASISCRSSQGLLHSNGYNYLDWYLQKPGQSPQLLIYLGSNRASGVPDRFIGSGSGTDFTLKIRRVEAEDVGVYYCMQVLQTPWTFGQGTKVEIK , state its recorded OD450 nm.
Ans: 0.3
